Target: Estrogen receptor (Homo sapiens) (UniProt P03372)
Sequence (whole entry): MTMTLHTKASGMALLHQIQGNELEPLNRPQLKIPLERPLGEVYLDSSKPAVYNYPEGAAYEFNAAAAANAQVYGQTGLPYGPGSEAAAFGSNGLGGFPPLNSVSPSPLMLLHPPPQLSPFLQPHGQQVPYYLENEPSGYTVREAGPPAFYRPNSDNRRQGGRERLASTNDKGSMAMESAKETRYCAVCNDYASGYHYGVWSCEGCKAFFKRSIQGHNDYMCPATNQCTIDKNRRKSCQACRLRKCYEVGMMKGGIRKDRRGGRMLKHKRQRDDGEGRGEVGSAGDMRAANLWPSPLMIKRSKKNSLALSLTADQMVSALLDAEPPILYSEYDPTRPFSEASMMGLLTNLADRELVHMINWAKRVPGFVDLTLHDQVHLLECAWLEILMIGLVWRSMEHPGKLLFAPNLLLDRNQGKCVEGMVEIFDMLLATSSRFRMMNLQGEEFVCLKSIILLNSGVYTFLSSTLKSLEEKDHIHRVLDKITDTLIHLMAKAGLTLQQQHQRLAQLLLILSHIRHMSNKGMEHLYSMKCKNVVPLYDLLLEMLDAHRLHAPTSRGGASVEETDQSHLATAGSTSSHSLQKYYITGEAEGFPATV
Assay: Activation of the estrogen receptors of MCF-7-2a cells at 10e-6 M.
observationType: Relative activation (%)
The reply should contain only the number, in %.

Lookup: Write down the reported Relative activation (system: Estrogen receptor (Homo sapiens) (UniProt P03372)) of "COc1cc(Cl)c([C@H]2NCCN[C@H]2c2c(Cl)cc(OC)cc2Cl)c(Cl)c1"
Found: 5

Lookup: Write down the reported Relative activation (system: Estrogen receptor (Homo sapiens) (UniProt P03372)) of "CCN1CCN[C@H](c2ccc(OC)cc2Cl)[C@@H]1c1ccc(OC)cc1Cl"
Found: 4

Lookup: Write down the reported Relative activation (system: Estrogen receptor (Homo sapiens) (UniProt P03372)) of "CCN1CCN(CC)[C@@H](c2ccc(O)cc2Cl)[C@H]1c1ccc(O)cc1Cl"
Found: 37

Lookup: Write down the reported Relative activation (system: Estrogen receptor (Homo sapiens) (UniProt P03372)) of "CCN1CCN(CC)[C@@H](c2ccc(O)cc2)[C@H]1c1ccc(O)cc1"
Found: 8

Lookup: Write down the reported Relative activation (system: Estrogen receptor (Homo sapiens) (UniProt P03372)) of "Oc1ccc([C@H]2NCCN[C@H]2c2ccc(O)cc2)cc1"
Found: -1

Lookup: Write down the reported Relative activation (system: Estrogen receptor (Homo sapiens) (UniProt P03372)) of "CCN1CCN(CC)[C@@H](c2ccc(OC)cc2F)[C@H]1c1ccc(OC)cc1F"
Found: 7

Lookup: Write down the reported Relative activation (system: Estrogen receptor (Homo sapiens) (UniProt P03372)) of "Oc1ccc([C@H]2NCCN[C@H]2c2ccc(O)cc2F)c(F)c1"
Found: 4

Lookup: Write down the reported Relative activation (system: Estrogen receptor (Homo sapiens) (UniProt P03372)) of "CCN1CCN[C@H](c2ccc(O)cc2F)[C@@H]1c1ccc(O)cc1F"
Found: 34

Lookup: Write down the reported Relative activation (system: Estrogen receptor (Homo sapiens) (UniProt P03372)) of "CCN1CCN(CC)[C@@H](c2ccc(OC)cc2)[C@H]1c1ccc(OC)cc1"
Found: 4

Lookup: Write down the reported Relative activation (system: Estrogen receptor (Homo sapiens) (UniProt P03372)) of "COc1ccc(Cl)c([C@H]2NCCN[C@H]2c2c(Cl)ccc(OC)c2Cl)c1Cl"
Found: 8

Lookup: Write down the reported Relative activation (system: Estrogen receptor (Homo sapiens) (UniProt P03372)) of "Oc1cc(Cl)c([C@H]2NCCN[C@H]2c2c(Cl)cc(O)cc2Cl)c(Cl)c1"
Found: 73

Lookup: Write down the reported Relative activation (system: Estrogen receptor (Homo sapiens) (UniProt P03372)) of "COc1ccc([C@H]2NCCN[C@H]2c2ccc(OC)cc2)cc1"
Found: 5

Lookup: Write down the reported Relative activation (system: Estrogen receptor (Homo sapiens) (UniProt P03372)) of "COc1ccc([C@H]2NCCN[C@H]2c2ccc(OC)cc2F)c(F)c1"
Found: 4

Lookup: Write down the reported Relative activation (system: Estrogen receptor (Homo sapiens) (UniProt P03372)) of "Oc1ccc([C@H]2NCCN[C@H]2c2c(Cl)cc(O)cc2Cl)c(Cl)c1"
Found: 20

Lookup: Write down the reported Relative activation (system: Estrogen receptor (Homo sapiens) (UniProt P03372)) of "CCN1CCN[C@H](c2ccc(OC)cc2F)[C@@H]1c1ccc(OC)cc1F"
Found: 3

Lookup: Write down the reported Relative activation (system: Estrogen receptor (Homo sapiens) (UniProt P03372)) of "COc1ccc([C@H]2NCCN[C@H]2c2c(Cl)cc(OC)cc2Cl)c(Cl)c1"
Found: 3

Lookup: Write down the reported Relative activation (system: Estrogen receptor (Homo sapiens) (UniProt P03372)) of "CCN1CCN[C@H](c2ccc(O)cc2Cl)[C@@H]1c1ccc(O)cc1Cl"
Found: 74

Lookup: Write down the reported Relative activation (system: Estrogen receptor (Homo sapiens) (UniProt P03372)) of "CCN1CCN(CC)[C@@H](c2ccc(O)cc2F)[C@H]1c1ccc(O)cc1F"
Found: 4

Lookup: Write down the reported Relative activation (system: Estrogen receptor (Homo sapiens) (UniProt P03372)) of "Oc1ccc([C@H]2NCCN[C@H]2c2ccc(O)cc2Cl)c(Cl)c1"
Found: 7

Lookup: Write down the reported Relative activation (system: Estrogen receptor (Homo sapiens) (UniProt P03372)) of "CCN1CCN(CC)[C@@H](c2ccc(OC)cc2Cl)[C@H]1c1ccc(OC)cc1Cl"
Found: 0

Lookup: Write down the reported Relative activation (system: Estrogen receptor (Homo sapiens) (UniProt P03372)) of "COc1ccc([C@H]2NCCN[C@H]2c2ccc(OC)cc2Cl)c(Cl)c1"
Found: 1

Lookup: Write down the reported Relative activation (system: Estrogen receptor (Homo sapiens) (UniProt P03372)) of "Oc1ccc(Cl)c([C@H]2NCCN[C@H]2c2c(Cl)ccc(O)c2Cl)c1Cl"
Found: 12
